# system-tested: KRas G12D (Homo sapiens, UniProt P01116, G12D);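 also: TR-FRET displacement binding assay on KRas, read after a one-hour incubation at room temperature, IC50 fitted from percent-of-control values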
# Sequence (P01116 1-169 isoform P01116-2 G12D): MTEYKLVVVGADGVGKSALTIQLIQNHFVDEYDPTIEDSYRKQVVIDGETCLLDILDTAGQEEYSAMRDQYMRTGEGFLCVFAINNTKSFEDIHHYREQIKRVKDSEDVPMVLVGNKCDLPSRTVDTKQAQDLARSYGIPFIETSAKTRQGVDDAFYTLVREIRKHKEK
# assay-text: biochemical
pIC50: −log10 of the molar value.
observable: pIC50

INSERT INTO results (molecule, assay_value) VALUES
  ('CCc1c(F)ccc2cc(O)cc(-c3ncc4c(N5CCCC6(COC(=O)N6)C5)nc(OC[C@@]56CCCN5C[C@H](F)C6)nc4c3F)c12 (stereo partly drawn) [Example 478]', '≥ 8.70'),
  ('CCc1c(F)ccc2cc(O)cc(-c3ncc4c(N5CCCn6nc(C(=O)N7CCCC7)cc6C5)nc(OC[C@@]56CCCN5C[C@H](F)C6)nc4c3F)c12 [Example 355]', '≥ 8.70'),
  ('CCc1c(F)ccc2cc(O)cc(-c3ncc4c(N5CCCCCCC5)nc(OC[C@@]56CCCN5C[C@H](F)C6)nc4c3F)c12 [Example 325]', '≥ 8.70');
